- procedure_text: BSK_SAg_Proliferation: Cell Proliferation Assessment in the BioMAP Diversity Plus: SAg Assay (AID 2283095);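 further: relative cell number as total protein by SRB absorbance in sub-confluent culture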
- study_conditions: primary human HUVEC with PBMC
Activity calls are given as the source filed them. How the source made its calls: active means hit-call score of the fitted dose curve at least 0.9, where 1 is the maximum; inactive means score below 0.9.
Reply using exactly one outcome from T (active), F (inactive)

{"compound": "C=C(C)C(=O)OCCCCCCCCCCCC", "class_assignment": "F"}
{"compound": "CC=C(C)C=CC=C(C)C", "class_assignment": "T"}
{"compound": "CCCCCCOC(=O)CCCCC(=O)OCCCCCC", "class_assignment": "F"}
{"compound": "CCNc1nc(NC(C)(C)C)nc(OC)n1", "class_assignment": "F"}
{"compound": "O=C1CCCCCCCCCCCN1", "class_assignment": "F"}

Inquiry: In this assay, the call recorded for CCN1CN(CC)CN(CC)C1 was what?
Reply text: T

Inquiry: In this assay, the call recorded for C1CNCCN1 was what?
Reply text: F

Inquiry: In this assay, the call recorded for Clc1cc(Cl)c(Cl)c(Cl)c1Cl was what?
Reply text: F

---

- procedure_text: BSK_4H_Eotaxin3: BioMAP Diversity Plus: 4H Assay for Eotaxin 3 Biomarker Activity (AID 2283000);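 on outcome: CCL26 protein level quantified by ELISA in parallel with SRB cytotoxicity check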
- study_conditions: primary human endothelial cells (HUVEC); actives raise or lower the signal
Active and inactive are the calls of the source. Rule for the calls: active = hit-call score of the fitted dose curve at least 0.9, where 1 is the maximum; inactive = score below 0.9.
Reply using exactly one outcome from true (1) = active, false (0) = inactive

Inquiry: In this assay, the call recorded for CC/C=C\C/C=C\C/C=C\CCCCCCCC(=O)OC was what?
Reply text: true (1)

Inquiry: In this assay, the call recorded for Oc1ccccc1Cc1ccccc1O was what?
Reply text: false (0)

Inquiry: In this assay, the call recorded for C=CC(=O)OCCCCCCCC(C)C was what?
Reply text: false (0)

---

- target_or_test_system: human Peroxisome Proliferator-activated Receptor alpha (PPARa), PPARA (gene 5465)
- procedure_text: ATG_PPARa_TRANS: Attagene TRANS-FACTORIAL HepG2 Assay for human Peroxisome Proliferator-activated Receptor alpha (PPARa) (AID 2283001)
Inconclusive results are not listed. Active and inactive are the calls of the source. Rule for the calls: active = hit-call score of the fitted dose curve at least 0.9, where 1 is the maximum; inconclusive = response in the unintended direction; inactive = score below 0.9.

{"compound": "CC(=O)CCC1=C(C)CCCC1(C)C", "target_or_test_system": "human Peroxisome Proliferator-activated Receptor alpha (PPARa), PPARA (gene 5465)", "outcome": "inactive"}
{"compound": "CCCSSCCC", "target_or_test_system": "human Peroxisome Proliferator-activated Receptor alpha (PPARa), PPARA (gene 5465)", "outcome": "inactive"}
{"compound": "O=S(=O)(O)c1ccc(Nc2nc(Nc3ccc(C=Cc4ccc(Nc5nc(Nc6ccc(S(=O)(=O)O)cc6)nc(N(CCO)CCO)n5)cc4S(=O)(=O)O)c(S(=O)(=O)O)c3)nc(N(CCO)CCO)n2)cc1", "target_or_test_system": "human Peroxisome Proliferator-activated Receptor alpha (PPARa), PPARA (gene 5465)", "outcome": "inactive"}

---

- Read-out: CD69, CD69 (gene 969)
- procedure_text: BSK_SAg_CD69: BioMAP Diversity Plus: SAg Assay for CD69 Biomarker Activity (AID 2283089);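 on AC50: cell surface CD69 protein quantified by ELISA with fluorescence detection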
- study_conditions: primary human HUVEC with PBMC; actives raise or lower the signal
Activity calls are given as the source filed them. Rule for the calls: active = hit-call score of the fitted dose curve at least 0.9, where 1 is the maximum; inactive = score below 0.9.
observable: AC50

Past entries and their recorded results:
{"molecule": "Cc1c(O)cccc1O", "AC50": "inactive"}
{"molecule": "Fc1ccc(Br)cc1", "AC50": "inactive"}
{"molecule": "COC(OC)(C(=O)c1ccccc1)c1ccccc1", "AC50": "inactive"}
{"molecule": "CCCC(C)C(=O)OCC (stereo not drawn)", "AC50": "inactive"}
{"molecule": "CC(c1cc(C(C)(C)C)cc(C(C)(C)C)c1O)c1cc(C(C)(C)C)cc(C(C)(C)C)c1O", "AC50": "inactive"}
{"molecule": "CC/C=C\\CCOC(=O)c1ccccc1O", "AC50": "20 µM (active)"}
{"molecule": "C=CC(=O)OCCCCCCOC(=O)C=C", "AC50": "2.98 µM (active)"}
{"molecule": "CC(Cl)COP(=O)(OCC(C)Cl)OCC(C)Cl (stereo not drawn)", "AC50": "inactive"}
{"molecule": "C=CCCCCCCCCC=O", "AC50": "inactive"}
{"molecule": "CCCCCCC=O", "AC50": "inactive"}

Inquiry: Reported AC50, molecule CCNc1nc(NC(C)(C)C)nc(OC)n1 : ____
Reply text: inactive

Inquiry: Reported AC50, molecule CCC1(C)C(=O)N(Cl)C(=O)N1Cl (stereo not drawn) : ____
Reply text: inactive

---

- procedure_text: ATG_TAL_CIS: Attagene CIS-FACTORIAL HepG2 Assay for human TAL Basal Promoter (AID 2282966);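 further: background control endpoint measuring basal TAL promoter reporter mRNA not a specific factor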
- study_conditions: HepG2 Attagene cis-factorial TAL promoter reporter; actives raise or lower the signal
Active and inactive are the calls of the source. Rule for the calls: active = hit-call score of the fitted dose curve at least 0.9, where 1 is the maximum; inactive = score below 0.9.
Reply using exactly one outcome from active, inactive

Below are worked cases with known answers.
{"molecule": "O=S(=O)(O)c1ccc(N=Nc2c(O)ccc3ccccc23)cc1", "class_assignment": "inactive"}
{"molecule": "CC(C)CC(=O)OCc1ccccc1", "class_assignment": "inactive"}
{"molecule": "O=C1c2ccccc2C(=O)c2cc(S(=O)(=O)O)ccc21", "class_assignment": "inactive"}
{"molecule": "CC(=O)OC/C=C(/C)CCC=C(C)C", "class_assignment": "inactive"}
{"molecule": "CN(C)c1ccc2nc3ccc(=[N+](C)C)cc-3sc2c1", "class_assignment": "inactive"}

Inquiry: In this assay, the call recorded for CC(C)(C)C1CCC(=O)CC1 was what?
Reply text: inactive

Inquiry: In this assay, the call recorded for CCCCCCCOC(=O)c1ccc(O)cc1 was what?
Reply text: inactive

Inquiry: In this assay, the call recorded for Nc1ccnc(=O)[nH]1 was what?
Reply text: inactive

Inquiry: In this assay, the call recorded for CCc1cccc(CC)c1 was what?
Reply text: inactive

Inquiry: In this assay, the call recorded for Cc1ccccc1CCO was what?
Reply text: inactive

Inquiry: In this assay, the call recorded for Clc1cc(Cl)c(Cl)c(Cl)c1Cl was what?
Reply text: inactive

Inquiry: In this assay, the call recorded for O=C(O)c1ccc2c(c1)C(=O)OC2=O was what?
Reply text: inactive

Inquiry: In this assay, the call recorded for COc1cc(O)c(C(=O)c2ccccc2)cc1S(=O)(=O)O was what?
Reply text: inactive

Inquiry: In this assay, the call recorded for c1ccc(-c2nc3ccccc3[nH]2)cc1 was what?
Reply text: inactive

Inquiry: In this assay, the call recorded for CCCCCC(=O)OCC was what?
Reply text: inactive

Inquiry: In this assay, the call recorded for CCCCC1CCC(=O)O1 (centres undefined) was what?
Reply text: inactive

Inquiry: In this assay, the call recorded for CC1C(C)(C)C2=C(C(=O)CCC2)C1(C)C (centres undefined) was what?
Reply text: inactive

Inquiry: In this assay, the call recorded for O=C1CCCN1C1CCCCC1 was what?
Reply text: inactive

Inquiry: In this assay, the call recorded for CCN1CN(CC)CN(CC)C1 was what?
Reply text: inactive

Inquiry: In this assay, the call recorded for CC(=O)c1ccccc1O was what?
Reply text: inactive

Inquiry: In this assay, the call recorded for CCCCC/C=C\C/C=C\CCCCCCCC(=O)O was what?
Reply text: active

Inquiry: In this assay, the call recorded for CC(Cl)COP(=O)(OCC(C)Cl)OCC(C)Cl (centres undefined) was what?
Reply text: inactive

Inquiry: In this assay, the call recorded for CCCCCCCCCCCCCc1ccccc1 was what?
Reply text: inactive

Inquiry: In this assay, the call recorded for CCCCCCCO was what?
Reply text: inactive

---

- procedure_text: BSK_BT_Bcell_Proliferation: Viability Assessment in the BioMAP Diversity Plus: BT Assay for B cell Proliferation (AID 2284227)
- study_conditions: primary human B cells with PBMC
Active and inactive are the calls of the source. Rule for the calls: active = hit-call score of the fitted dose curve at least 0.9, where 1 is the maximum; inactive = score below 0.9.
Reply using exactly one outcome from 1 (active), -1 (inactive)

Below are worked cases with known answers.
{"compound": "CCN1CN(CC)CN(CC)C1", "class_assignment": -1}
{"compound": "CCCCCCOC(=O)CCCCC(=O)OCCCCCC", "class_assignment": -1}
{"compound": "C=CC(=O)OCCCCCCOC(=O)C=C", "class_assignment": 1}
{"compound": "Cc1c(O)cccc1O", "class_assignment": -1}
{"compound": "Fc1ccc(Br)cc1", "class_assignment": -1}
{"compound": "CCCCC1C(=O)N(c2ccccc2)N(c2ccccc2)C1=O", "class_assignment": -1}
{"compound": "CC1=CC=C(C(C)C)CC1", "class_assignment": -1}
{"compound": "O=C(O)C(F)(F)C(F)(F)C(F)(F)C(F)(F)C(=O)O", "class_assignment": -1}

Inquiry: In this assay, the call recorded for CCCCCC1=CCCC1=O was what?
Reply text: -1

Inquiry: In this assay, the call recorded for CCCCCCCCCCCC(C)=O was what?
Reply text: -1

Inquiry: In this assay, the call recorded for C=CC(=O)NCOCCCC was what?
Reply text: -1

Inquiry: In this assay, the call recorded for O=C1CCCCCCCCCCC1 was what?
Reply text: -1
